FYI, the data here is from the supplement of paper PMC10266784.

B1: library; numbered along this chain (parent)
chain: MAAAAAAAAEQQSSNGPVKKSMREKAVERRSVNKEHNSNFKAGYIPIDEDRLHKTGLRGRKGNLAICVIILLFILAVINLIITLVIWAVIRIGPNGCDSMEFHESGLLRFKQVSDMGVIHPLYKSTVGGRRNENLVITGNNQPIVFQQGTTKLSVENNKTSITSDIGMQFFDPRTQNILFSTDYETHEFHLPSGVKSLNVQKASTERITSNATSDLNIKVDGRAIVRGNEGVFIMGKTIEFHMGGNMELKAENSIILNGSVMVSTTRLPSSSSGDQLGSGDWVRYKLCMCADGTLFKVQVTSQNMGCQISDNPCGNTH

# Variants of: B1
# experiment.summary: SGCB cell-surface expression functional score (HA stain, bin4 vs bin1, normalised to synonymous) (log10 ratio); higher = more cell-surface SGCB (functional)
property.label: SGCB cell-surface expression functional score (log10)

Example variants with recorded SGCB cell-surface expression functional score (log10):
>  <mutant.id>
L52T

>  <obs.value>
0.42

$$$$
>  <mutant.id>
E240V

>  <obs.value>
0.99

$$$$
>  <mutant.id>
G128L

>  <obs.value>
0.03

$$$$
>  <mutant.id>
N132Q

>  <obs.value>
-0.01

$$$$
>  <mutant.id>
S38V

>  <obs.value>
-0.31

$$$$
>  <mutant.id>
K219L

>  <obs.value>
0.3

$$$$
>  <mutant.id>
M305H

>  <obs.value>
-0.9

$$$$
>  <mutant.id>
T317N

>  <obs.value>
0.08

$$$$

q: Quick one: SGCB cell-surface expression functional score (log10) for G293H ?
a: 0.14

q: Subsequent entry: V195K
a: -1.88

q: Subsequent entry: N37W
a: -0.53

q: Subsequent entry: G139P
a: -1.13

q: Subsequent entry: G129Y
a: -0.91

q: Subsequent entry: M116D
a: -0.59

q: Subsequent entry: C67W
a: 0.43

q: Subsequent entry: L179M
a: -1.01

q: Subsequent entry: E35S
a: 0.03

q: Subsequent entry: I162H
a: -1.02

q: Subsequent entry: N158Y
a: -0.05

q: Subsequent entry: Q148C
a: 0.39

q: Subsequent entry: L295Y
a: -0.02

q: Subsequent entry: S197F
a: -2.04

q: Subsequent entry: K250P
a: -0.39

q: Subsequent entry: L80E
a: -0.1

q: Subsequent entry: G167R
a: -1.14

q: Subsequent entry: V226P
a: -0.81

q: Subsequent entry: E252A
a: 0.53
